Test system: H4
Assay: cells;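 note: growth inhibition of cultured human H4 cells, read out with a cell viability assay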
Type: functional, cell-based
Settings: Homo sapiens
Description: SANGER: Inhibition of human H4 cell growth in a cell viability assay.
The entries below are paired with their reported IC50.
Field: numeric (µM). Do not append units.

Molecule	Readout	Obs Value
COc1cc([C@@H]2c3cc4c(cc3[C@@H](O[C@@H]3O[C@@H]5CO[C@@H](C)O[C@H]5[C@H](O)[C@H]3O)[C@H]3COC(=O)[C@H]23)OCO4)cc(OC)c1O [ETOPOSIDE]	IC50	0.297

// switching to the query molecule
Query string: Fill in: IC50 on H4, entry O=C(c1cc(Cc2n[nH]c(=O)c3ccccc23)ccc1F)N1CCN(C(=O)C2CC2)CC1
Result string: 4.89
